System: HCV from sera of patients infected with resistant strains
Protocol Summary: Capture fusion assay: THP-1 cells infected with patient serum, fused with Huh7.5, HCV RNA by PCR
Format: cell-based
Condition Notes: Hepatitis C virus, sample from patient 23, relapse of HCV infection (IFN resistant), FIG. 12B; read-out: IC50
Measure Name: pIC50
Numbers only, as −log10 of the molar value.

Observed pIC50 on HCV from sera of patients infected with resistant strains, entry CO[C@H]1C(OP(=O)(OC[C@H]2O[C@@H](n3cnc4c(N)ncnc43)CC2O)SCOC(=O)OC(C)C)[C@@H](CO)O[C@H]1n1ccc(=O)[nH]c1=O (stereo partly shown) [Formula (IIa)] , equals 8.26

Data provenance is patent US20190046552A1.
